Target: human CD33 P46I (human, UniProt P20138 18-364)
Sequence (P20138 18-364 P46I limits assumed): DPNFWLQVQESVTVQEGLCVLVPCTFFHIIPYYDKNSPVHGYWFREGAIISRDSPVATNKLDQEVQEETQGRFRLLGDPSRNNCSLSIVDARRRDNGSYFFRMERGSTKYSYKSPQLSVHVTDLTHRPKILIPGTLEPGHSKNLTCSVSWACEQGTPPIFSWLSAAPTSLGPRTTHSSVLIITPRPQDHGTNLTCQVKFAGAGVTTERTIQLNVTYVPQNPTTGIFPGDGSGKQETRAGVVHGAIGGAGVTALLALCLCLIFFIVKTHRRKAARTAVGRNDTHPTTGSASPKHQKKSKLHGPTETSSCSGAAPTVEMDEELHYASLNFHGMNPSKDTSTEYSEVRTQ
Assay: flow cytometry, mutant on cells, IgG
// values below are reported Mean % WT Binding
Just the number in % WT binding, nothing appended.

Record summary for Refmab #4 (antibody, human IgG1, V domains shown, Tested in IgG format; human IgG1 Fc silent (PG-LALA)) VH: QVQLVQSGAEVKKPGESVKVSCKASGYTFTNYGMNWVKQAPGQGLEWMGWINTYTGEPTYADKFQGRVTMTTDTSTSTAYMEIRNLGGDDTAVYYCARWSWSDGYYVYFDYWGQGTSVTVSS VL: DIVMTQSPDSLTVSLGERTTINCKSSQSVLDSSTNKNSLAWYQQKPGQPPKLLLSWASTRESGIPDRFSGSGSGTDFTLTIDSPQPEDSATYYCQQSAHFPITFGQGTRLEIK : reported Mean % WT Binding = 91

More entries:
Record summary for Refmab #1 (antibody, human IgG1, V domains shown, Tested in IgG format; human IgG1 (Absolute Antibody hP67.6, Cat. No. Ab00283-10.0); also called hP67.6) VH: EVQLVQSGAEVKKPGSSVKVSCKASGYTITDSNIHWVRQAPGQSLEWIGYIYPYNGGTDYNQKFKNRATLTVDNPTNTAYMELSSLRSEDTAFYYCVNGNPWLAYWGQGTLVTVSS VL: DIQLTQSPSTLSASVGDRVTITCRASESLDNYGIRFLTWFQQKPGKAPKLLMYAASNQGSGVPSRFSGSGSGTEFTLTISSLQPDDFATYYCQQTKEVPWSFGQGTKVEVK : reported Mean % WT Binding = 38.2

Record summary for Refmab #2 (antibody, human IgG1, V domains shown, Tested in IgG format; human IgG1 Fc silent (PG-LALA)) VH: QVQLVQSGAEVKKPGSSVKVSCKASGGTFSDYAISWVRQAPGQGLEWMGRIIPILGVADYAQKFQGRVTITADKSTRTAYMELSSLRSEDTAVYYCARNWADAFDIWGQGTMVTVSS VL: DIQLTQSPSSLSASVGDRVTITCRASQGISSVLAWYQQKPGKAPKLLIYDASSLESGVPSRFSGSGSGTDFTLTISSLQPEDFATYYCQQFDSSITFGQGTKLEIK : reported Mean % WT Binding = 55.8
